# target.or.system: JAK 2 (Homo sapiens, UniProt O60674)
# Sequence (O60674 whole entry): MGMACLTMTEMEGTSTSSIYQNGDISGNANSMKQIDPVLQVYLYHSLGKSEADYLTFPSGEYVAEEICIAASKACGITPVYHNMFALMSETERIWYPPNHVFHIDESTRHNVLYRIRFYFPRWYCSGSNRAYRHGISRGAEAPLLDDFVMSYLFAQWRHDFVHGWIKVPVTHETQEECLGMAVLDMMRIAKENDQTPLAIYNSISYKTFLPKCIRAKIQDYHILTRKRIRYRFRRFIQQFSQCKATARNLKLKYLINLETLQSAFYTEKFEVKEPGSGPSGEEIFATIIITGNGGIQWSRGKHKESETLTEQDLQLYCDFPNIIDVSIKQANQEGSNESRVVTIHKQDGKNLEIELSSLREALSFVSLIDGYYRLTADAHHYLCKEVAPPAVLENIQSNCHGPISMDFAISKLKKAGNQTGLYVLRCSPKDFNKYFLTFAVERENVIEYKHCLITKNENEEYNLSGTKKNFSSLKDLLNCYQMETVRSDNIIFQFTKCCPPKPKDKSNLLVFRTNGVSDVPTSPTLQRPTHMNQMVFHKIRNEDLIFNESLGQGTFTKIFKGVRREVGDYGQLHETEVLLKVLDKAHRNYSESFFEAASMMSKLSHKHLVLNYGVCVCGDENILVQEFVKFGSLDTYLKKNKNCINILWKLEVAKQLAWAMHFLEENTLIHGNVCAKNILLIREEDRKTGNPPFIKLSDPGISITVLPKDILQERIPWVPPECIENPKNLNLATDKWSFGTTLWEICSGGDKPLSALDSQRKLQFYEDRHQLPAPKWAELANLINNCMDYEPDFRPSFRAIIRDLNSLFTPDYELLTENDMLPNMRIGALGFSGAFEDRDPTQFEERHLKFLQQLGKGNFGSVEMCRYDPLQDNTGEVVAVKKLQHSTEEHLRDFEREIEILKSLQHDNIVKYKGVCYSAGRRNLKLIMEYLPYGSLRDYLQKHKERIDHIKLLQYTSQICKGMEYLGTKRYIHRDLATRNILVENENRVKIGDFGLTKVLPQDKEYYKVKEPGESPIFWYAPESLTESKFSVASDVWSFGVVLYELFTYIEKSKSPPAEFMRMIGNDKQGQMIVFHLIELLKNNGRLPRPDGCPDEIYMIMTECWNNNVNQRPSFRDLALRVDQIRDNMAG
# protocol.summary: Biochemical potency on JAK2, TR-FRET LANCE Ultra kinase assay (examples 1-99)
# measurement.context: ATP at Km (0.7 μM), read-out: JAK2 inhibitory activity (pIC50 class) (converted)
property.name: IC50

Sample records with IC50:
smiles	property.name	value.observed
CN(C)[C@H]1C[C@@H](NC(=O)c2nn(-c3cc(Cl)ccc3OC(F)F)c3cc(-c4cnn5cccnc45)ncc23)C1	IC50	5.01 to 50.1 nM
COc1ccc(Cl)cc1-n1nc(C(=O)N[C@H]2C[C@H](N3CCOCC3)C2)c2cnc(-c3cnn4cccnc34)cc21	IC50	5.01 to 50.1 nM
NCc1nn(-c2cc(Cl)ccc2OC(F)F)c2cc(-c3cnn4cccnc34)ncc12	IC50	≤ 5.01 nM
COc1ccc(S(=O)(=O)CCCO)cc1-n1nc(C)c2cnc(-c3cnn4cccnc34)cc21	IC50	≤ 5.01 nM
COc1ccc(C(F)(F)F)cc1-n1nc(C)c2cnc(-c3cnn4cccnc34)cc21	IC50	≤ 5.01 nM
Cc1nn(-c2cc(Cl)ccc2SC(F)F)c2cc(-c3cnn4cccnc34)ncc12	IC50	5.01 to 50.1 nM
CNC(=O)c1nn(-c2cc(Cl)ccc2OC(F)F)c2cc(-c3cnn4cccnc34)ncc12	IC50	≤ 5.01 nM
Cc1nn(-c2cc(Cl)ccc2OC(F)F)c2cc(Nc3ncc[nH]c3=O)ncc12	IC50	≤ 5.01 nM

Please turn your attention to the following entry.
Quick note, IC50 for Cc1nn(-c2cc(Cl)ccc2OC(F)F)c2cc(-c3cnn4cccnc34)ncc12 landed at ≤ 5.01 nM

###

# target.or.system: JAK 2 (Homo sapiens, UniProt O60674)
# protocol.summary: Biochemical potency on JAK2, TR-FRET LANCE Ultra kinase assay (examples 1-99)
# measurement.context: ATP at Km (0.7 μM), read-out: JAK2 inhibitory activity (pIC50 class) (converted)
property.name: IC50

# example entries with known answers
compound	IC50
COc1cc(O)c(F)cc1-n1nc(C)c2cnc(-c3cnn4cccnc34)cc21 [Example 58]	≤ 5.01 nM
COc1ccc(S(=O)(=O)NCC2CN(C)C2)cc1-n1nc(C)c2cnc(-c3cnn4cccnc34)cc21 [Example 17]	5.01 to 50.1 nM
COc1ccc(NS(C)(=O)=O)cc1-n1nc(NCCN(C)C)c2cnc(-c3cnn4cccnc34)cc21 [Example 86]	5.01 to 50.1 nM
Cc1nn(-c2cc(SC3COC3)ccc2OC(F)F)c2cc(-c3cnn4cccnc34)ncc12 [Example 73]	≤ 5.01 nM
COc1ccc(C)cc1-n1nc(NCCN(C)C)c2cnc(-c3cnn4cccnc34)cc21 [Example 45]	5.01 to 50.1 nM

# IC50 measured on JAK 2 (Homo sapiens, UniProt O60674) for item CSc1ccc(OC(F)F)c(-n2nc(NCCCN(C)C)c3cnc(-c4cnn5cccnc45)cc32)c1 [Example 46] = ≤ 5.01 nM

Lab note: compound O=C(c1nn(-c2cc(Cl)ccc2OC(F)F)c2cc(-c3cnn4cccnc34)ncc12)N1CCS(=O)(=O)CC1 [Example 35] tested on JAK 2 (Homo sapiens, UniProt O60674); recorded IC50 was 5.01 to 50.1 nM

Per the reported JAK 2 (Homo sapiens, UniProt O60674) data, CNc1nc(-c2cnn3cccnc23)cc2c1cnn2-c1cc(Cl)ccc1OC [Example 52] has IC50 of 5.01 to 50.1 nM

Values were extracted from patent US20240279240A1.
